For each of the compounds below, state its growth inhibition.
# assay_explanation: NCI Yeast Anticancer Drug Screen. Data for the sgs1 mgt1 strain (AID 161);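 note: 0% = growth of cultures given vehicle only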
# test_conditions: S. cerevisiae sgs1 mgt1 strain, stronger effect = higher value; at 50.0 µM unless noted
About 79,000 compounds went through this panel and 15% of them were active in at least one assay; those are over-represented in the sample as a whole.
Numbers only, in %.

# compound, metric_name, observed
rows = [
    ("CC(C)(C)C(C)(C)SSC(C)(C)C(C)(C)C", "growth inhibition", 18.8),
    ("CC1=CCC(CC2CO2)C1(C)C (configuration not stated)", "growth inhibition", -17.2),
    ("O=C1OC2C(O)C(CO)OC2n2c1cc(=O)[nH]c2=O (configuration not stated)", "growth inhibition", 9.4),
    ("O=C(O)CCC(=O)CCC(=O)O", "growth inhibition", 3.6),
    ("O=C1CN(c2ccccc2)C(=O)CN1NCNN1CC(=O)N(c2ccccc2)CC1=O", "growth inhibition", -1.5),
    ("CN(C)CCNC(=O)Cn1ccc(=O)c2ccc([N+](=O)[O-])cc21", "growth inhibition", 20.6),
]

Proceed to the following item.
Lookup: Reported growth inhibition, compound CCN(CC)C(=O)N(O)C1CCCCC1 : ____
Found: -14.9

====

Can you tell me growth inhibition for the items I'm about to list?
# assay_explanation: NCI Yeast Anticancer Drug Screen. Data for the mec2-1 strain (AID 157)
# test_conditions: S. cerevisiae mec2-1 strain, stronger effect = higher value; at 50.0 µM unless noted
About 79,000 compounds went through this panel and 15% of them were active in at least one assay; those are over-represented in the sample as a whole.
Give bare numbers, in %.

# compound, growth inhibition / %
records = [
    ("O=C(NCC1CC1)c1cccs1", -50.9),
    ("O=C1C=C(Nc2ccccc2)C(=O)C=C1Nc1ccccc1", 1.65),
    ("CCCCCC[N+]1([O-])CC[N+]([O-])(CCCCCC)CC1 (stereo not given)", -7.9),
    ("CCOC(=O)CC(c1ccccc1)C(C)(C(=O)OCC)C(=O)OCC (stereo not given)", -10.8),
    ("CC1OC(O[C@H]2CC[C@]3(C)[C@H]4CC=C5[C@@H]6[C@@H](C)[C@H](C)CC[C@]6(C(=O)OC6OC(CO)C(O)C(O)C6O)CC[C@@]5(C(=O)O)[C@]4(C)CC[C@H]3C2(C)C)C(O)C(O)C1O (stereo not given in full)", -1.8),
    ("COc1ccc(CCC(=O)c2ccc(N)cc2)cc1", -16.4),
    ("O=C(O)NC(=O)c1cc([N+](=O)[O-])ccc1COC1CCCCO1 (stereo not given)", -0.85),
    ("CCOC(=O)c1oc2cc(O)ccc2c(=O)c1-c1ccc(OC)c(OC)c1", -1.7),
]

Please go through the list and note growth inhibition for each compound.
1. C=C(NC(=O)C(c1ccccc1)c1ccccc1)C(=O)O
2. C[N+](C)(C)CC(O)C[N+](C)(C)C

Found:
11.7
6.15

====

# assay_explanation: NCI Yeast Anticancer Drug Screen. Data for the mec2-1 strain (AID 157)
# test_conditions: S. cerevisiae mec2-1 strain, stronger effect = higher value; at 50.0 µM unless noted
Compounds without any hit were thinned out: in the full panel of roughly 79,000, 15% have a hit.
Please provide measured growth inhibition for the entries that follow.
Numbers only, in %.

# compound, metric_name, unit_label, observed
records = [
    ("NC(=O)c1ccc(-c2csc(=S)[nH]2)s1", "growth inhibition", "%", -9.7),
    ("Cc1[nH]c(=O)nc(N/N=C/c2ccc(Cl)cc2)c1C(=O)NC(C)(CO)CO", "growth inhibition", "%", -14.6),
    ("O=C(NCCCl)c1ccc(Cl)c(Cl)c1", "growth inhibition", "%", 0.25),
    ("Cc1cc2c(c(C(=O)O)c1C)-c1cccc(Cl)c1C2=O", "growth inhibition", "%", -2.3),
    ("COc1cc(C(=O)O)cc(I)c1OC", "growth inhibition", "%", 25.1),
    ("CNC(=O)OCc1cc(C)cc(C)c1-c1ccco1", "growth inhibition", "%", -9.15),
    ("NC(=S)C(=S)N=Cc1c(O)c2ccccc2oc1=O", "growth inhibition", "%", 29.9),
    ("O=C(O)C1(F)CC1(c1ccccc1)c1ccccc1 (configuration not stated)", "growth inhibition", "%", 9.7),
]

List reported growth inhibition for each of these compounds:
1. Nc1nc(N)c2ncn(Cc3ccccc3)c2n1
2. C=CCCn1nc(-c2ccccc2)oc1=O
3. COC(OC)C(C)=O
4. COC(=O)C1CCOC(C)N1C(=O)OC(C)(C)C (configuration not stated)
5. NC(=O)C1CC2(c3ccccn3)c3ccccc3C1c1ccccc12 (configuration not stated)
6. O=[N+]([O-])c1cccc(Br)c1

Found:
-34.4
-28.5
-19.8
0.75
7.6
22.8

Dear reader, for each entry below, please note its growth inhibition.
1. CCCCOC(=O)c1cccc(C)c1
2. O=C(Oc1ccc(O)cc1)N(c1cccc2ccccc12)c1cccc2ccccc12
3. C=C(c1c(C)cccc1OC(C)=O)c1c(C)cccc1OC(C)=O
4. COc1ccc(C(=O)CCC(=O)O)c(O)c1
5. ClC(=Nc1cccc2ccccc12)N(c1ccccc1)c1ccccc1
6. CCN(C(=O)c1ccc(C(=O)N(CC)c2cccc(C)c2)cc1)c1cccc(C)c1
7. C=C(C)c1ccc(C(C)C)cc1
8. COc1ccc(C(=O)C(CN(C)C)CN(C)C)c(OC)c1

Found:
1. 4.4
2. 18.1
3. -10.6
4. 1.35
5. 7.45
6. -3.55
7. -40.1
8. 30.8

State the recorded growth inhibition for every item in the following list.
1. CCC[C@@H]1C(=O)N=C(N)N1C(=O)OCc1ccccc1
2. OCCCCCSc1ccccc1
3. Cc1ccc(NC(=O)c2c(Br)c(Br)c(Br)c(Br)c2C(=O)O)cc1Cl
4. CC1CCC2(OC1)OC1CC3C4CCC5CC(O)CCC5(C)C4C(O)CC3(C)C1C2C (configuration not stated)
5. O=C1c2ccccc2C(=O)N1/N=[N+](\[O-])c1ccccc1
6. c1ccc2c(c1)/C(=N/c1nccs1)N/C2=N\c1nccs1
7. CCCCC(CC)C(O)P(=O)(O)O (configuration not stated)
8. COc1ccc(C(C)c2cc(N=NC(N)=O)c(OC)cc2O)cc1 (configuration not stated)

Found:
1: 8.4; 2: 4.35; 3: -5.5; 4: 5.65; 5: 0.3; 6: -6.35; 7: -15.1; 8: -3.6

====

Record form. Attribute: growth inhibition. Fill in for each entry.
# assay_explanation: NCI Yeast Anticancer Drug Screen. Data for the sgs1 mgt1 strain (AID 161);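 note: 0% = growth of cultures given vehicle only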
# test_conditions: S. cerevisiae sgs1 mgt1 strain, stronger effect = higher value; at 50.0 µM unless noted
This is part of a sample that, as a whole, favours compounds with a hit. Of some 79,000 tested, about 15% had one in any assay.
One number for each entry, in %.

Batch lookup, growth inhibition per entry.
1. CCCCN(C#N)CCCC
2. O=C1CCCC(=O)N1n1c(Cc2ccc(Cl)cc2)n[nH]c1=O
3. CC1=NC(C)(C)N(O)C1(C)C
4. O=C(NCCCl)NC1CCCCCC1

Found:
1. 27.6
2. 1.3
3. -3.05
4. -16

Dear colleague, could you please provide growth inhibition for the molecules listed below?
1. COC(=O)C(C)(C)C(C)=O
2. Cc1ccc(C)c(NC(=O)Nc2ccccc2)c1
3. COc1ccccc1-n1c(=O)c(N=Nc2ccc(Br)cc2)c(O)n(-c2ccccc2C)c1=S

Found:
[-37.5, -7.2, 44.7]

Each molecule below has a recorded value; state its growth inhibition.
1. COc1cc(OC)c(NC(=O)C2=C(C)NC(C)=C(C(=O)Nc3cc(Cl)c(OC)cc3OC)C2c2cccc([N+](=O)[O-])c2)cc1Cl
2. N#CC(C(=O)CCC(=O)NCCc1ccccc1)c1nc2ccccc2s1 (stereo not drawn)

Found:
1. 22.9
2. -10.8

====

Provide the reported growth inhibition of each item.
# assay_explanation: NCI Yeast Anticancer Drug Screen. Data for the mec2-1 strain (AID 157)
# test_conditions: S. cerevisiae mec2-1 strain, stronger effect = higher value; at 50.0 µM unless noted
About 79,000 compounds went through this panel and 15% of them were active in at least one assay; those are over-represented in the sample as a whole.
One number for each entry, in %.

Here are 3 compounds together with their reported answers.
# compound, unit_label, observed
rows = [
    ("Clc1ccccc1Nc1nc(Nc2ccccc2Cl)nc(Nc2ccccc2Cl)n1", "%", 19.4),
    ("CN1CCN(C2c3ccccc3OC(C)(C)C2O)CC1 (stereo not drawn)", "%", -14),
    ("Cc1nc2ccncc2[nH]1", "%", -1.3),
]

Hello, I would appreciate it if you could give growth inhibition for each entry below.
1. O=C1OCc2ccccc21
2. CC(=O)OC1COC(N2C(=O)C(=O)c3c(C)cc(Cl)nc32)C(OC(C)=O)C1OC(C)=O (stereo not drawn)
3. O=C1c2ccccc2C(=Cc2cccc([N+](=O)[O-])c2)c2ccccc21
4. NC(=O)CC[n+]1ccccc1

Found:
1: 7.8; 2: -15.7; 3: 18.4; 4: -29.3

Provide each entry's growth inhibition from the list below.
1. CCCCN(CCCC)C(=O)C(=O)C(C(=O)c1ccc(OC)cc1)c1ccc(OC)cc1 (stereo not drawn)
2. Cc1cc(=O)[nH]c(N/N=C/C=C/c2ccccc2)n1
3. Cc1ccc(C(CCC#N)OC(C)C)cc1 (stereo not drawn)
4. C/C(N)=N\O
5. O=c1[nH]cnc2c1ccc1[nH]ncc12
6. O=C(O)/C(=C/c1cccc(Cl)c1)c1ccc(Cl)cc1

Found:
-1.5
-25.7
19.8
4.1
0.2
-10.8
